ASSAY_REMARKS: Salidiuretic screening test in rats (Lipschitz method modified by Kagawa and Kalm), 5 mg/kg p.o.
Type: in vivo, rats (LATI CFY strain, male)
PROTOCOL_CONDITIONS: 0-24 h; single oral dose 5 mg/kg; rat
// reported Water secretion, % of simultaneously measured control per item
QUANTITY: Water secretion, % of simultaneously measured control

COMPOUND | MEASURED_RESULT
CC1c2ccccc2CCN1NC(=O)c1ccc(Cl)c(S(N)(=O)=O)c1 (stereo not shown) | 154%
NS(=O)(=O)c1cc2c(cc1Cl)NCNS2(=O)=O [Hypothiazide, reference compound] | 119%
NS(=O)(=O)c1cc(C(=O)NN2CCc3ccccc3C2)ccc1Cl | 148%
COc1cc2c(cc1OC)C(C)N(NC(=O)c1ccc(Cl)c(S(N)(=O)=O)c1)CC2 (stereo not shown) | 112%

* * *

// reported K secretion, % of simultaneously measured control per item
ASSAY_REMARKS: Salidiuretic screening test in rats (Lipschitz method modified by Kagawa and Kalm), 5 mg/kg p.o.
Type: in vivo, rats (LATI CFY strain, male)
PROTOCOL_CONDITIONS: 0-6 h; single oral dose 5 mg/kg; rat
QUANTITY: K secretion, % of simultaneously measured control (%)

MOLECULE | MEASURED_RESULT
CC1c2ccccc2CCN1NC(=O)c1ccc(Cl)c(S(N)(=O)=O)c1 (stereo not shown) | 170
NS(=O)(=O)c1cc(C(=O)NN2CCc3ccccc3C2)ccc1Cl | 145
NS(=O)(=O)c1cc2c(cc1Cl)NCNS2(=O)=O [Hypothiazide, reference compound] | 117
COc1cc2c(cc1OC)C(C)N(NC(=O)c1ccc(Cl)c(S(N)(=O)=O)c1)CC2 (stereo not shown) | 104
